Please respond with reported AUC for every item in the list.
- APPLIED_CONDITIONS: rat, in vivo, iv, 0.3 mg/kg
Bridge positions count the residues as written; N and C are the ends. Square brackets hold non-standard residues; d marks the D form. Peptide text beside a SMILES is read from it. * marks the point of attachment. Piperazin2one(3S-Bu,6R-CO) = CCCC[C@@H]1NC[C@H](C(=O)*)NC1=O; X1 = N=C(N)NCCC[C@H]1C(=O)N[C@@H](C(N)=O)CN1*; Heptanoyl = CCCCCCC(=O)*; Nle = CCCC[C@H](N)C(=O)O; Orn = NCCC[C@H](N)C(=O)O
One number for each entry, in µM·h.

Go through the items and report each one's AUC.
1. CCCC[C@@H]1NC[C@H](C(=O)N[C@H]2CSSC[C@@H](C(=O)N[C@@H](Cc3ccc(O)cc3)C(=O)N3C[C@H](C(N)=O)NC(=O)[C@@H]3CCCNC(=N)N)NC(=O)[C@H](CO)NC(=O)[C@H]([C@@H](C)CC)NC(=O)[C@H](CCCN)NC(=O)[C@H](CC(=O)O)NC(=O)[C@H](CCCC)NC(=O)[C@H](CCCNC(=N)N)NC(=O)CNC(=O)CNC(=O)[C@H](Cc3ccccc3)NC(=O)[C@H](Cc3c[nH]cn3)NC2=O)NC1=O [1-55] ({Piperazin2one(3S-Bu,6R-CO)}-CHFGGR[Nle]D[Orn]ISCY-X1; disulfide 1-12)
2. CCCCCCC(=O)N[C@H]1CSSC[C@@H](C(=O)N[C@@H](Cc2ccc(O)cc2)C(=O)N2C[C@H](C(N)=O)NC(=O)[C@@H]2CCCNC(=N)N)NC(=O)[C@H](CO)NC(=O)[C@H]([C@@H](C)CC)NC(=O)[C@H](CCCNC(=N)N)NC(=O)[C@H](CC(=O)O)NC(=O)[C@H](CCCC)NC(=O)[C@H](CCCNC(=N)N)NC(=O)CNC(=O)CNC(=O)[C@H](Cc2ccccc2)NC(=O)[C@H](Cc2c[nH]cn2)NC1=O [1-63] (Heptanoyl-CHFGGR[Nle]DRISCY-X1; disulfide 1-12)
3. CCCC[C@@H]1NC[C@H](C(=O)N[C@H]2CSSC[C@@H](C(=O)N[C@@H](Cc3ccc(O)cc3)C(=O)N3C[C@H](C(N)=O)NC(=O)[C@@H]3CCCNC(=N)N)NC(=O)[C@H](CO)NC(=O)[C@H]([C@@H](C)CC)NC(=O)[C@H](CCCNC(=N)N)NC(=O)[C@H](CC(=O)O)NC(=O)[C@H](CCCC)NC(=O)[C@H](CCCNC(=N)N)NC(=O)CNC(=O)CNC(=O)[C@H](Cc3ccccc3)NC(=O)[C@H](Cc3c[nH]cn3)NC2=O)NC1=O [1-18] ({Piperazin2one(3S-Bu,6R-CO)}-CHFGGR[Nle]DRISCY-X1; disulfide 1-12)

**A:**
[0.116, 0.033, 0.061]
